Catalogue of EC50 values
# Tested on: A-375
# assay_info: Cytotoxicity against human A-375 cells assessed as reduction in cell viability incubated for 72 hrs by SRB assay
# Type: functional, cell-based
# test_settings: Homo sapiens, A-375, 72 h; read-out: EC50
// return numeric value only (unit: µM, not printed)

input_smiles	EC50 (µM)
C=C(C)[C@@H]1CC[C@]2(C(=O)O)CC[C@]3(C)[C@H](CC[C@@H]4[C@@]5(C)C[C@H](O)[C@H](O)C(C)(C)[C@@H]5CC[C@]43C)[C@@H]12	11.2
CC(=O)O[C@H]1C[C@]2(C)[C@H]3CC[C@@H]4[C@H]5[C@H](C(C)=O)CC[C@]5(C(=O)O)CC[C@@]4(C)[C@]3(C)CC[C@H]2C(C)(C)[C@H]1OC(C)=O	22.5
C=C(C)[C@@H]1CC[C@]2(C(=O)O)CC[C@]3(C)[C@H](CC[C@@H]4[C@@]5(C)C=C(O)C(=O)C(C)(C)[C@@H]5CC[C@]43C)[C@@H]12	13.8
C=C(C)[C@@H]1CC[C@]2(C(=O)NCc3ccccc3)CC[C@]3(C)[C@H](CC[C@@H]4[C@@]5(C)C[C@H](OC(C)=O)[C@H](OC(C)=O)C(C)(C)[C@@H]5CC[C@]43C)[C@@H]12	3.14
C=C(C)[C@@H]1CC[C@]2(C(=O)O)CC[C@]3(C)[C@H](CC[C@@H]4[C@@]5(C)CC[C@H](OC(C)=O)C(C)(C)[C@@H]5CC[C@]43C)[C@@H]12	19.2

Inquiry: Can you share its EC50? I mean this molecule: `CC(=O)O[C@H]1C[C@]2(C)[C@H]3CC[C@@H]4[C@H]5[C@H](C(C)=O)CC[C@]5(C(=O)Nc5cncc6ccccc56)CC[C@@]4(C)[C@]3(C)CC[C@H]2C(C)(C)[C@H]1OC(C)=O`
Reply text: 4.88

Inquiry: Return reported EC50; argument: `C=C(C)[C@@H]1CC[C@]2(C(=O)Nc3cccc4ncccc34)CC[C@]3(C)[C@H](CC[C@@H]4[C@@]5(C)CC[C@H](OC(C)=O)C(C)(C)[C@@H]5CC[C@]43C)[C@@H]12`
Reply text: 3.05

Inquiry: Form field: reported EC50 of `C=C(C)[C@@H]1CC[C@]2(C(=O)O)CC[C@]3(C)[C@H](CC[C@@H]4[C@@]5(C)C[C@H](OC(C)=O)[C@H](OC(C)=O)C(C)(C)[C@@H]5CC[C@]43C)[C@@H]12`
Reply text: 15.8

Inquiry: Fill in the blank: the reported EC50 of `C=C(C)[C@@H]1CC[C@]2(C(=O)O)CC[C@]3(C)[C@H](CC[C@@H]4[C@@]5(C)CCC(=O)C(C)(C)[C@@H]5CC[C@]43C)[C@@H]12` is ____.
Reply text: 14.3

Inquiry: Quick one: EC50 for `C=C(C)[C@@H]1CC[C@]2(C(=O)NCc3ccccc3)CC[C@]3(C)[C@H](CC[C@@H]4[C@@]5(C)CC[C@H](OC(C)=O)C(C)(C)[C@@H]5CC[C@]43C)[C@@H]12` ?
Reply text: 4.05

Inquiry: Given `CC(=O)O[C@H]1CC[C@]2(C)[C@H]3CC[C@@H]4[C@H]5[C@H](C(C)=O)CC[C@]5(C(=O)Nc5cncc6ccccc56)CC[C@@]4(C)[C@]3(C)CC[C@H]2C1(C)C` , state its recorded EC50.
Reply text: 5.66

Inquiry: For the molecule shown here, `CC(=O)O[C@H]1CC[C@]2(C)[C@H]3CC[C@@H]4[C@H]5[C@H](C(C)=O)CC[C@]5(C(=O)Nc5cccc6ncccc56)CC[C@@]4(C)[C@]3(C)CC[C@H]2C1(C)C` , give the reported EC50.
Reply text: 4.6

Inquiry: Give its EC50 value. Item: `CC(=O)O[C@H]1C[C@]2(C)[C@H]3CC[C@@H]4[C@H]5[C@H](C(C)=O)CC[C@]5(C(=O)NCc5ccccc5)CC[C@@]4(C)[C@]3(C)CC[C@H]2C(C)(C)[C@H]1OC(C)=O`
Reply text: 2.9

Inquiry: Which EC50 reading was recorded for the molecule `C=C(C)[C@@H]1CC[C@]2(C(=O)Nc3cncc4ccccc34)CC[C@]3(C)[C@H](CC[C@@H]4[C@@]5(C)C[C@H](OC(C)=O)[C@H](OC(C)=O)C(C)(C)[C@@H]5CC[C@]43C)[C@@H]12` ?
Reply text: 3.34
